target: PAR2 (HT-29 cells, SLIGKV activation) (Homo sapiens, UniProt P55085); construct: host or cells: HT-29 cells; experiment: Ca FLIPR TETRA assay, ANTAGONIST mode, stimulation with 8 μM SLIGKV; assay type: cell-based; settings: HT-29 cells, antagonist mode, stimulation with 8 μM SLIGKV
Sequence (P55085 26-397): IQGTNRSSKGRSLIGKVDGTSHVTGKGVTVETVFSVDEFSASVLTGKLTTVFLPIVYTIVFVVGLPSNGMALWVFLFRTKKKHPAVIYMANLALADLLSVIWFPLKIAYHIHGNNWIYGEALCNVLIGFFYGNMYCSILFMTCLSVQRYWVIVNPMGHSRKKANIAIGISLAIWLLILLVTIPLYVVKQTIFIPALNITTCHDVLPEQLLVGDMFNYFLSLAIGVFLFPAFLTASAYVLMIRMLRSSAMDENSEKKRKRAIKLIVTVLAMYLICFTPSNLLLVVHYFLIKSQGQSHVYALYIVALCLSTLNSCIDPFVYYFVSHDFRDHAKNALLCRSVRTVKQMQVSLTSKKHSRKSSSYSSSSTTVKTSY
# IC50 per record follows
Your answer is read as nM, so omit the unit and give the number.

[[record]]
substance_smiles = "Cc1nc(C(=O)N2CCN(C(=O)c3cn4nc(-c5ccc(F)c(C)c5)cc(C(C)C)c4n3)C(C)(C)C2)c[nH]1"
assay_system = "PAR2 (HT-29 cells, SLIGKV activation) (Homo sapiens, UniProt P55085)"
quantity = "IC50"
readout_value = 8.3

[[record]]
substance_smiles = "CC(C)c1cc(-c2ccc(F)c(Cl)c2)nn2cc(C(=O)N3CCN(C(=O)[C@H]4C[C@@](C)(O)C4)CC3(C)C)nc12"
assay_system = "PAR2 (HT-29 cells, SLIGKV activation) (Homo sapiens, UniProt P55085)"
quantity = "IC50"
readout_value = 2.7

[[record]]
substance_smiles = "CC(C)c1cc(-c2ccc(F)cc2)nn2cc(C(=O)N3CCN(C(=O)c4ccn[nH]4)CC3(C)C)nc12"
assay_system = "PAR2 (HT-29 cells, SLIGKV activation) (Homo sapiens, UniProt P55085)"
quantity = "IC50"
readout_value = 3.2


Which value of IC50 has been reported for CC(C)(C)c1cc(-c2ccc(C(F)(F)F)cc2)nn2cc(C(=O)N3CCN(c4c[nH]cn4)C(=O)C3(C)C)nc12 in the records? 11.3

Need IC50 of CC(C)(C)c1cc(-c2ccccc2F)nn2cc(C(=O)N3CCNC(=O)C3(C)C)nc12 , thanks. 15

Query (compound): CC(C)(C)c1cc(-c2ccc(C(F)(F)F)cc2)nn2cc(C(=O)N3CCN(C(=O)[C@H]4C[C@@](C)(O)C4)CC3(C)C)nc12 ; field requested: IC50 1.8

What IC50 value was documented for this compound, CC(C)(C)c1cc(-c2ccc(F)c(Cl)c2)nn2cc(C(=O)N3CCN(C(=O)[C@H]4C[C@@](C)(O)C4)CC3(C)C)nc12 ? 0.5
